# System: Human aortic smooth muscle cells
# Assay Name: Smooth muscle cell proliferation assay / anti-proliferation assay (perlecan)
# Condition Info: read-out: Avg IC-50; anti-proliferation assay (perlecan)
Endpoint Name: IC50

Q. // lookup IC50 | system=Human aortic smooth muscle cells | key= COc1ccc(Nc2nc(NC3CCCCCC3)nc(N(C)C3CCN(C)CC3)n2)cc1F
A. 4 to 5 µM

----------
Listed below: activity at 10 µM values for each entry.
# Test system: TNF-α induced IL-6
# Assay Name: TNF-α-induced IL-6 production determined by IL-6 ELISA
# Assay type: cell-based
# Condition Info: Homo sapiens, 24 h; Table 5, first part; class = % of control IL6 production; read-out: Inhibition of TNF-induced IL6 production

INSERT INTO measurements (molecule, tested_system, endpoint_name, obs_value) VALUES
  ('COc1ccc(Nc2nc(NCc3ccco3)nc(NC3CCCCCC3)n2)cc1F', 'TNF-α induced IL-6', 'activity at 10 µM', '25 to 50%'),
  ('COc1ccc(Nc2nc(Cl)nc(NC3CCCCCC3)n2)cc1F', 'TNF-α induced IL-6', 'activity at 10 µM', '25 to 50%'),
  ('CCN1CCCC1CNc1nc(Nc2ccccc2C)nc(NC2CCCCCC2)n1 (centres unmarked)', 'TNF-α induced IL-6', 'activity at 10 µM', '25 to 50%'),
  ('COc1ccc(Nc2nc(NCCCN3CCCC3=O)nc(NC3CCCCCC3)n2)cc1F', 'TNF-α induced IL-6', 'activity at 10 µM', '25 to 50%'),
  ('CCN1CCCC1CNc1nc(Nc2ccc(OC)c(F)c2)nc(N2CCN(C(C)=O)CC2)n1 (centres unmarked)', 'TNF-α induced IL-6', 'activity at 10 µM', '25 to 50%');

Q. Which measured activity at 10 µM value corresponds to CCN1CCC[C@H]1CNc1nc(NC2CCCCCC2)nc(N(CC#N)c2ccccc2)n1 ?
A. 0 to 25%

Q. Looking for the measured activity at 10 µM of CCN1CCCC1CNc1nc(Nc2ccc(N3CCN(C)CC3)cc2)nc(NC2CCCCCC2)n1 (centres unmarked) , can you help?
A. 0 to 25%

Q. # activity at 10 µM lookup, item CCN1CCCC1CNc1nc(NC2CCCCCC2)nc(N(C)c2ccc(OC)cc2)n1 (centres unmarked)
A. 0 to 25%

Q. Record request: activity at 10 µM value, item CCN1CCCC1CNc1nc(Nc2ccc(OC)c(F)c2)nc(N2CCN(CC(=O)N3CCCC3)CC2)n1 (centres unmarked)
A. 0 to 25%

Q. Consider the molecule shown here: CCN1CCCC1CNc1nc(NCc2ccccc2)nc(Nc2ccc(OC)c(F)c2)n1 (centres unmarked) What is its recorded activity at 10 µM?
A. 0 to 25%

Q. Would you mind telling me what activity at 10 µM value was observed for COc1ccc(Nc2nc(NC3CCCCCC3)nc(N3CCCCCC3)n2)cc1F ?
A. 0 to 25%

Q. Fill in the blank: the reported activity at 10 µM of CCN1CCCC1CNc1nc(Nc2ccc(OC)c(F)c2)nc(N2CCN(c3ccccn3)CC2)n1 (centres unmarked) is ____.
A. 0 to 25%

Q. I have this molecule here, CCN1CCCC1CNc1nc(Nc2ccc(NC(C)=O)cc2)nc(NC2CCCCCC2)n1 (centres unmarked) , and I need its recorded activity at 10 µM.
A. 0 to 25%

Q. Which value of activity at 10 µM has been reported for CCN1CCCC1CNc1nc(Nc2ccc(OC)c(F)c2)nc(NC(C)(C)C)n1 (centres unmarked) in the records?
A. 0 to 25%

----------
Quick reference: Inflammation Data, cell death at 5 uM of the listed items.
# System: TNF-α induced IL-6
# Assay Name: TNF-α-induced IL-6 production determined by IL-6 ELISA
# Type: cell-based
# Condition Info: 5 uM
Give your result in % as a bare value.

INSERT INTO measurements (molecule, endpoint_name, obs_value) VALUES
  ('CN(c1nc(Nc2ccc(OCc3ccccc3)c(Cl)c2)nc(NC2CCCCCC2)n1)C1CCNCC1', 'Inflammation Data, cell death at 5 uM', 50),
  ('COc1ccc(Nc2nc(NC3CCCCCC3)nc(NC3CCN(Cc4ccccc4)CC3)n2)cc1F', 'Inflammation Data, cell death at 5 uM', 25),
  ('COc1ccc(Nc2nc(NC3CCCCCC3)nc(N3CCN(C)CC3)n2)cc1Cl', 'Inflammation Data, cell death at 5 uM', 25),
  ('CN1CCC(N(C)c2nc(Nc3ccc(OCc4ccccc4)c(Cl)c3)nc(NC3CCCCCC3)n2)CC1', 'Inflammation Data, cell death at 5 uM', 30),
  ('COc1ccc(Nc2nc(NC3CCCCCC3)nc(NC3CCNCC3)n2)cc1', 'Inflammation Data, cell death at 5 uM', 20);

Q. Find the recorded Inflammation Data, cell death at 5 uM belonging to COc1ccc(Nc2nc(NC3CCCCCC3)nc(NC3CCN(Cc4ccccc4)CC3)n2)cc1Cl [drawing 1615] and report it.
A. 20

----------
Endpoint Name: melting point (°C)
Write the answer as a number in °C, unit excluded.

Record excerpt, results attached:
INSERT INTO measurements (compound, display_unit, obs_value) VALUES
  ('COc1ccc(Nc2nc(NN3CCCCCC3)nc(N(C)C3CCNCC3)n2)cc1Cl', '°C', 81),
  ('COc1ccc(Nc2nc(NCCCCCO)nc(N(C)C3CCNCC3)n2)cc1Cl', '°C', 101),
  ('COc1ccc(Nc2nc(Cl)nc(OCC3CCCCC3)n2)cc1F', '°C', 98);

Q. # get_value(readout='melting point', item= COc1ccc(Nc2nc(Cl)nc(NCC3CCCCC3)n2)cc1F )
A. 156

Q. Returns the measured melting point for the input compound. Input: COc1ccc(Nc2nc(Nc3ccc(OC)c(Cl)c3)nc(NC3CCCCCC3)n2)cc1Cl
A. 183

Q. Quick check: melting point of COc1ccc(Nc2nc(Nc3ccc(OC)c(Cl)c3)nc(OCC3CCCCC3)n2)cc1Cl ?
A. 188

Q. So what's the measured melting point for this one? CCN1CCCC1CNc1nc(Nc2ccc(OC)c(F)c2)nc(OCC2CCCCC2)n1 (stereo not shown)
A. 59

Q. Quick one: melting point for COc1ccc(Nc2nc(Cl)nc(Cl)n2)cc1F ?
A. 134

----------
# System: TNF-α induced IL-6
# Assay Name: TNF-α-induced IL-6 production determined by IL-6 ELISA
# Format: cell-based
# Condition Info: HAEC, TNF stimulated, compound 10 uM
Counter-ions that a name gives are not always drawn.
Endpoint Name: % IL6 production compare to TNF stimulation of IL6 (100%), Compds tested @ 10 uM HAEC, IL6

INSERT INTO results (compound, tested_system, obs_value) VALUES
  ('COc1ccc(Nc2nc(NC3CCCCCC3)nc(NC3CCNCC3)n2)cc1Cl', 'TNF-α induced IL-6', 'total cell death'),
  ('COc1ccc(Nc2nc(NC3CCCCCC3)nc(N(C)C3CCN(C)CC3)n2)cc1F [Compound 168, citrate salt]', 'TNF-α induced IL-6', 'total cell death');

----------
# Test system: TNF-α induced IL-6
# Assay Name: TNF-α-induced IL-6 production determined by IL-6 ELISA
# Format: cell-based
# Condition Info: 10 uM
Endpoint Name: Inflammation Data, cell death at 10 uM

INSERT INTO assay_data (compound, obs_value) VALUES
  ('COc1ccc(Nc2nc(NC3CCCCCC3)nc(NC3CCNCC3)n2)cc1', '> 50%'),
  ('COc1ccc(Nc2nc(NC3CCCCCC3)nc(OC3CCN(C)CC3)n2)cc1Cl', 'total cell death'),
  ('CN(c1nc(Nc2ccc(OCc3ccccc3)c(Cl)c2)nc(NC2CCCCCC2)n1)C1CCNCC1', 'total cell death'),
  ('COc1ccc(Nc2nc(NC3CCCCCC3)nc(NC3CCN(Cc4ccccc4)CC3)n2)cc1Cl [drawing 1615]', '> 50%');

----------
# Tested on: TNF-α induced IL-6
# Assay Name: TNF-α-induced IL-6 production determined by IL-6 ELISA
# Type: cell-based
# Condition Info: Homo sapiens, 24 h; Table 5, first part; class = % of control IL6 production; read-out: Inhibition of TNF-induced IL6 production
# Procedure: Human aortic endothelial cells (HAEC, Clonetics) were cultured according to manufacturer in growth medium (Clonetics): basal medium containing human epidermal growth factor, hydrocortisone, vascular endothelial growth factor, heparin binding growth factor-B, long R3-insulin-like growth factor-1, ascorbic acid, gentamicin/amphotericin and 5% FBS. These cell were allowed to reach at least 90% confluency before subjected to experimental treatments. […] Tumor necrosis factor α was from R&D Systems. […]
Consider the following compounds and their measured activity at 10 µM readings.

Consider the worked cases shown below.
INSERT INTO results (compound, endpoint_name, obs_value) VALUES
  ('COc1ccc(Nc2nc(NC3CCCCCC3)nc(NC(C)(C)C)n2)cc1F [Compound 77]', 'activity at 10 µM', '0 to 25%'),
  ('COc1ccc(Nc2nc(NC3CC3)nc(NC3CC3)n2)cc1F [Compound 157]', 'activity at 10 µM', '50 to 75%');

Q. What reported activity at 10 µM corresponds to CCN1CCCC1CNc1nc(NCC2CCCCC2)nc(Nc2ccc(OC)c(F)c2)n1 (stereo not drawn) [Compound 65] on TNF-α induced IL-6?
A. 0 to 25%
